As shown below, each of these binders has a reported Maximum inhibition rate (%) value.
targetOrTestSystem: T1, human OX40 on cells (CHO-K1/hu OX40) (human, UniProt P43489 29-277)
T1 construct: whole, on cells; Also used here for OX40 on the HEK293/OX40/NF-kb reporter cells and on human T cells in the functional assays; also called CHO-K1/OX40; human OX40 cells
T1 sequence (looked up): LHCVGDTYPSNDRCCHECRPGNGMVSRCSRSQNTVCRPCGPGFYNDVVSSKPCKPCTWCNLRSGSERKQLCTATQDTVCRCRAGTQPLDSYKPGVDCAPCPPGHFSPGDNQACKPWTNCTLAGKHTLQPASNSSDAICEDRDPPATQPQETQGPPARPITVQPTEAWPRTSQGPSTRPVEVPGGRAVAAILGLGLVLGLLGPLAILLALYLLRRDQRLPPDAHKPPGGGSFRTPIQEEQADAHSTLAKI
assayName: FACS, blocking of biotin-human OX40L on CHO-K1/hu OX40 cells
Protocol: Briefly, the CHO-K1/hu OX40 cells were digested and resuspended in an F-12K complete medium, and the cell density was adjusted to 1×10⁶ cells/mL. The cells were seeded in a 96-well V-bottom plate (Corning, #3894) at 100 μL/well, and centrifuged, and then the supernatant was discarded. […] Fluorescence signal values were read using BD FACS CANTOII, and IC50 was calculated. […]
observedProperty: Maximum inhibition rate (%)

PR002056 (antibody, human IgG1, V domains shown, no light chain; also called anti-OX40 HCAb antibody) VH: EVQLLESGGGLVQPGGSLRLSCAASGFTFSSYAMSWVRQAPGKGLEWVSAISGGGGSIFYADSVRGRFTISRDNSKNTLYLQMNSLRAEDTAVYYCANGMTGTTDVDYWGQGTLVTVSS : 34
PR002065 (antibody, human IgG1, V domains shown, no light chain; also called anti-OX40 HCAb antibody) VH: EVQLVESGGGLVQPGGSLRLSCAASGFTFSSYAMSWVRQAPGKGLEWVSAISGRGDITFYADSVRGRFTISRDNSKNTLYLQMNSLRAEDTALYYCANGMTGSTDVDFWGQGTLVTVSS : 44
